Reference source: patent US11504441B2

assay: in vivo; conditions: male, NODSCID 1L2RγKO, mouse, iv, total radioactivity, Heart uptake
Field 'label' (enum: YES / NO). Set to YES when tissue uptake at 1 h is strictly under 0.2 %ID/g; else NO.

Some solved entries appear below for comparison.
O=C(O)CN1CCN(CC(=O)O)CCN(CC(=O)NC[C@H]2CC[C@H](C(=O)N[C@@H](Cc3c4ccccc4cc4ccccc34)C(=O)NCCCC[C@H](NC(=O)N[C@@H](C[C@@H](F)C(=O)O)C(=O)O)C(=O)O)CC2)CCN(CC(=O)O)CC1 [68Ga-HTK04033, metal not drawn]; YES
O=C(O)CCC[C@H](NC(=O)N[C@@H](CCCCNC(=O)[C@H](Cc1ccc2ccccc2c1)NC(=O)[C@H]1CC[C@H](CNC(=O)CN2CCN(CC(=O)O)CCN(CC(=O)O)CCN(CC(=O)O)CC2)CC1)C(=O)O)C(=O)O [68Ga-HTK03169, metal not drawn]; YES

In: Is the reported tissue uptake at 1 h for O=C(O)COC[C@H](NC(=O)N[C@@H](CCCCNC(=O)[C@H](Cc1c2ccccc2cc2ccccc12)NC(=O)[C@H]1CC[C@H](CNC(=O)CN2CCN(CC(=O)O)CCN(CC(=O)O)CCN(CC(=O)O)CC2)CC1)C(=O)O)C(=O)O [68Ga-HTK03187, metal not drawn] strictly below 0.2 %ID/g?
Out: YES

In: Does the reported tissue uptake at 1 h of O=C(O)CCC[C@H](NC(=O)N[C@@H](CCCCNC(=O)[C@H](Cc1cccc(I)c1)NC(=O)[C@H]1CC[C@H](CNC(=O)CN2CCN(CC(=O)O)CCN(CC(=O)O)CCN(CC(=O)O)CC2)CC1)C(=O)O)C(=O)O [68Ga-HTK04053, metal not drawn] stay below 0.2 %ID/g?
Out: YES

In: is_below(tissue uptake at 1 h, 0.2 %ID/g) for O=C(O)CSC[C@H](NC(=O)N[C@@H](CCCCNC(=O)[C@H](Cc1c2ccccc2cc2ccccc12)NC(=O)[C@H]1CC[C@H](CNC(=O)CN2CCN(CC(=O)O)CCN(CC(=O)O)CCN(CC(=O)O)CC2)CC1)C(=O)O)C(=O)O [68Ga-HTK03177, metal not drawn] ?
Out: NO

In: # check: tissue uptake at 1 h < 0.2 %ID/g for O=C(O)CCC[C@H](NC(=O)N[C@@H](CCCCNC(=O)[C@H](Cc1c2ccccc2cc2ccccc12)NC(=O)c1ccc(NC(=O)CN2CCN(CC(=O)O)CCN(CC(=O)O)CCN(CC(=O)O)CC2)cc1)C(=O)O)C(=O)O [68Ga-HTK04041, metal not drawn]
Out: NO

In: Quick check: does O=C(O)C[C@H](NC(=O)N[C@@H](CCCCNC(=O)[C@H](Cc1c2ccccc2cc2ccccc12)NC(=O)[C@H]1CC[C@H](CNC(=O)CN2CCN(CC(=O)O)CCN(CC(=O)O)CCN(CC(=O)O)CC2)CC1)C(=O)O)C(=O)O [68Ga-HTK03161, metal not drawn] have tissue uptake at 1 h under 0.2 %ID/g?
Out: NO

In: Please let me know if O=C(O)CC[C@H](NC(=O)N[C@@H](CCCCNC(=O)[C@H](Cc1c2ccccc2cc2ccccc12)NC(=O)[C@H]1CC[C@H](CNC(=O)CN2CCN(CC(=O)O)CCN(CC(=O)O)CCN(CC(=O)O)CC2)CC1)C(=O)O)C(=O)O [68Ga-HTK03041, metal not drawn] shows tissue uptake at 1 h below 0.2 %ID/g.
Out: NO

###

experiment: in vivo; conditions: male, NODSCID 1L2RγKO, mouse, iv, total radioactivity, Pancreas uptake
Value Kind: tissue uptake at 1 h
Number plus unit, in that order.

O=C(O)CCC[C@H](NC(=O)N[C@@H](CCCCNC(=O)[C@H](Cc1ccc2ccccc2c1)NC(=O)[C@H]1CC[C@H](CNC(=O)CN2CCN(CC(=O)O)CCN(CC(=O)O)CCN(CC(=O)O)CC2)CC1)C(=O)O)C(=O)O [68Ga-HTK03169, metal not drawn]; 0.11 %ID/g

Next, consider the following compound.
In: What does the data say about its tissue uptake at 1 h? Entry: O=C(O)COC[C@H](NC(=O)N[C@@H](CCCCNC(=O)[C@H](Cc1c2ccccc2cc2ccccc12)NC(=O)[C@H]1CC[C@H](CNC(=O)CN2CCN(CC(=O)O)CCN(CC(=O)O)CCN(CC(=O)O)CC2)CC1)C(=O)O)C(=O)O [68Ga-HTK03187, metal not drawn]
Out: 0.12 %ID/g

###

tested on: PSMA-expressing LNCaP cancer xenografts; conditions: mouse, in vivo
# Tumor: Blood ratio listing for each entry below
Provide a numeric answer; units are not to be included.

The examples below pair each entry with its known result.
O=C(O)CCC[C@H](NC(=O)N[C@@H](CCCCNC(=O)[C@H](Cc1c2ccccc2cc2ccccc12)NC(=O)Cc1ccc(CNC(=O)CN2CCN(CC(=O)O)CCN(CC(=O)O)CCN(CC(=O)O)CC2)cc1)C(=O)O)C(=O)O [68Ga-HTK04036, metal not drawn]; 21.0
O=C(O)CCC[C@H](NC(=O)N[C@@H](CCCCNC(=O)[C@H](Cc1c2ccccc2cc2ccccc12)NC(=O)Cc1cccc(CNC(=O)CN2CCN(CC(=O)O)CCN(CC(=O)O)CCN(CC(=O)O)CC2)c1)C(=O)O)C(=O)O [68Ga-HTK04037, metal not drawn]; 26.3
O=C(O)C[C@H](NC(=O)N[C@@H](CCCCNC(=O)[C@H](Cc1c2ccccc2cc2ccccc12)NC(=O)[C@H]1CC[C@H](CNC(=O)CN2CCN(CC(=O)O)CCN(CC(=O)O)CCN(CC(=O)O)CC2)CC1)C(=O)O)C(=O)O [68Ga-HTK03161, metal not drawn]; 11.4
O=C(O)CCC[C@H](NC(=O)N[C@@H](CCCCNC(=O)[C@H](Cc1c2ccccc2cc2ccccc12)NC(=O)c1ccc(NC(=O)CN2CCN(CC(=O)O)CCN(CC(=O)O)CCN(CC(=O)O)CC2)cc1)C(=O)O)C(=O)O [68Ga-HTK04041, metal not drawn]; 12.4

In: Data request, read-out Tumor: Blood ratio, for O=C(O)CCCCC(NC(=O)N[C@@H](CCCCNC(=O)[C@H](Cc1c2ccccc2cc2ccccc12)NC(=O)[C@H]1CC[C@H](CNC(=O)CN2CCN(CC(=O)O)CCN(CC(=O)O)CCN(CC(=O)O)CC2)CC1)C(=O)O)C(=O)O (single isomer, unassigned) [68Ga-HTK03189B, metal not drawn]
Out: 0.65

In: Record request: Tumor: Blood ratio value, item O=C(O)CSC[C@H](NC(=O)N[C@@H](CCCCNC(=O)[C@H](Cc1c2ccccc2cc2ccccc12)NC(=O)[C@H]1CC[C@H](CNC(=O)CN2CCN(CC(=O)O)CCN(CC(=O)O)CCN(CC(=O)O)CC2)CC1)C(=O)O)C(=O)O [68Ga-HTK03177, metal not drawn]
Out: 36.1

In: Return reported Tumor: Blood ratio; argument: O=C(O)CN1CCN(CC(=O)O)CCN(CC(=O)NC[C@H]2CC[C@H](C(=O)N[C@@H](Cc3c4ccccc4cc4ccccc34)C(=O)NCCCC[C@H](NC(=O)N[C@@H](C[C@@H](F)C(=O)O)C(=O)O)C(=O)O)CC2)CCN(CC(=O)O)CC1 [68Ga-HTK04033, metal not drawn]
Out: 31.7

In: Name the reported Tumor: Blood ratio value associated with the compound O=C(O)CCCCC(NC(=O)N[C@@H](CCCCNC(=O)[C@H](Cc1c2ccccc2cc2ccccc12)NC(=O)[C@H]1CC[C@H](CNC(=O)CN2CCN(CC(=O)O)CCN(CC(=O)O)CCN(CC(=O)O)CC2)CC1)C(=O)O)C(=O)O (single isomer, unassigned) [68Ga-HTK03189A, metal not drawn]
Out: 2.41

In: Find the recorded Tumor: Blood ratio belonging to O=C(O)CCC[C@H](NC(=O)N[C@@H](CCCCNC(=O)[C@H](Cc1cccc(I)c1)NC(=O)[C@H]1CC[C@H](CNC(=O)CN2CCN(CC(=O)O)CCN(CC(=O)O)CCN(CC(=O)O)CC2)CC1)C(=O)O)C(=O)O [68Ga-HTK04053, metal not drawn] and report it.
Out: 16.8

In: What Tumor: Blood ratio value was documented for this compound, O=C(O)CCC[C@H](NC(=O)N[C@@H](CCCCNC(=O)[C@H](Cc1ccc2ccccc2c1)NC(=O)[C@H]1CC[C@H](CNC(=O)CN2CCN(CC(=O)O)CCN(CC(=O)O)CCN(CC(=O)O)CC2)CC1)C(=O)O)C(=O)O [68Ga-HTK03169, metal not drawn] ?
Out: 6.09

In: Endpoint output: Tumor: Blood ratio of O=C(O)COC[C@H](NC(=O)N[C@@H](CCCCNC(=O)[C@H](Cc1c2ccccc2cc2ccccc12)NC(=O)[C@H]1CC[C@H](CNC(=O)CN2CCN(CC(=O)O)CCN(CC(=O)O)CCN(CC(=O)O)CC2)CC1)C(=O)O)C(=O)O [68Ga-HTK03187, metal not drawn] . Value?
Out: 32.2

In: Would you kindly share the measured Tumor: Blood ratio for O=C(O)CN1CCN(CC(=O)O)CCN(CC(=O)NC[C@H]2CC[C@H](C(=O)N[C@@H](Cc3c4ccccc4cc4ccccc34)C(=O)NCCCC[C@H](NC(=O)N[C@@H](C[C@H](F)C(=O)O)C(=O)O)C(=O)O)CC2)CCN(CC(=O)O)CC1 [68Ga-HTK04040, metal not drawn] ?
Out: 20.4
